- target: MAGI2_5, Q86UL8
- Sequence (Q86UL8 915-1017): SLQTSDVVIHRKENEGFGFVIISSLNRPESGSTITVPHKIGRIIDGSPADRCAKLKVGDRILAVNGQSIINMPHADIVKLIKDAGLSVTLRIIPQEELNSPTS
- assay: holdup assay
- Parameters: key: below the threshold = too weak to quantify, mostly under pKd 3.1 to 4
- condition-label: plain residues with an end cap or a label only (N-terminal biotin on a linker: ado-ado)
Reported pKd values are given for each entry in this list.
Lab note: jot down the number only; don't add units.

Recorded pKd, per entry:
binder	pKd
QLSFNTDTLC [ABCA2, Q9BZC7]	3.73
DGVNEKVSCV [HTR2A, P28223]	4.78

May I ask what pKd has been recorded for PSHPRLQTHV [KIRREL2, Q6UWL6] ? 3.58

Would you kindly repeat that for SRSVVESDEL [MYPN, Q86TC9] ? 3.95

Item: VLYPREGTEV [FOXI1, Q12951] 4.09
